Assayed target: gp43exo− (bacteriophage T4 DNA polymerase) (Enterobacteria phage T4, UniProt P04415, D219A)
Test details: biochemical
Type: biochemical
Protocol conditions: KD
Measurement type: Kd

| Compound | Measurement type | Result |
| --- | --- | --- |
| O=P(O)(O)OP(=O)(O)OP(=O)(O)OC[C@H]1O[C@@H](n2ccc3cc(-c4ccccc4)ccc32)C[C@@H]1O [5-PhITP] | Kd | ~10 µM |

###

Assayed target: gp43exo− (bacteriophage T4 DNA polymerase) (Enterobacteria phage T4, UniProt P04415, D219A)
Format: biochemical
Sequence (P04415 whole entry D219A, looked up): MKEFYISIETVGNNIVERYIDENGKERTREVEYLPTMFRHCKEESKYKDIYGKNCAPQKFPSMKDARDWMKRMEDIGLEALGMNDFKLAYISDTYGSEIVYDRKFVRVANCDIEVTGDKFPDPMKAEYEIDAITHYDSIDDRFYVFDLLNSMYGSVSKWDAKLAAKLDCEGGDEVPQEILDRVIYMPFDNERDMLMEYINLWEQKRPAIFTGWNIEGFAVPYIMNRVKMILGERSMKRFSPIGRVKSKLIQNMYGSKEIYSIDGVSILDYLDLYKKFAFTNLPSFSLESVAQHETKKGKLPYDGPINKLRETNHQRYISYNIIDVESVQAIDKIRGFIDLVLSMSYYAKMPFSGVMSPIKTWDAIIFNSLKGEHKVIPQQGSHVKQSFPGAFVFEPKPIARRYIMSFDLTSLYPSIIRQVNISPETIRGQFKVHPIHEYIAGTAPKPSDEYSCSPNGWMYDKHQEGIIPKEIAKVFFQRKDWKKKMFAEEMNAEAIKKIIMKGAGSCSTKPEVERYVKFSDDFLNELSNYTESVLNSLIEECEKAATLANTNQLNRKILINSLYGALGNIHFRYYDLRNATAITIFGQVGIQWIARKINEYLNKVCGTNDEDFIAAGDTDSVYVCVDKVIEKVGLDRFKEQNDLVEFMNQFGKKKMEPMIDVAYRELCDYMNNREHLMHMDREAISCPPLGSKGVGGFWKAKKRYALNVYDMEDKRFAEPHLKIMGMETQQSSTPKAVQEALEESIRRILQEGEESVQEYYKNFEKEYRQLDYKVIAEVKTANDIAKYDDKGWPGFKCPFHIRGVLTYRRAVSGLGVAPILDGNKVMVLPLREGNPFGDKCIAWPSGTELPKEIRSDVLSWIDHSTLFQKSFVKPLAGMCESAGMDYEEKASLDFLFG
Measurement type: kext (s⁻¹)

| Entry smiles | Measurement type | Units of measure | Quantitative readout |
| --- | --- | --- | --- |
| Nc1ncnc2c1ncn2[C@H]1C[C@H](O)[C@@H](COP(=O)(O)OP(=O)(O)OP(=O)(O)O)O1 | kext | s⁻¹ | 0.25 |
| Nc1ncnc2c1ccn2[C@H]1C[C@H](O)[C@@H](COP(=O)(O)OP(=O)(O)OP(=O)(O)O)O1 | kext | s⁻¹ | 0.32 |
| COc1nc(N)nc2c1ncn2[C@H]1C[C@H](O)[C@@H](COP(=O)(O)OP(=O)(O)OP(=O)(O)O)O1 | kext | s⁻¹ | 0.092 |
| O=P(O)(O)OP(=O)(O)OP(=O)(O)OC[C@H]1O[C@@H](n2cnc3c(Cl)ncnc32)C[C@@H]1O | kext | s⁻¹ | 0.031 |
| CNc1ncnc2c1ncn2[C@H]1C[C@H](O)[C@@H](COP(=O)(O)OP(=O)(O)OP(=O)(O)O)O1 | kext | s⁻¹ | 0.71 |
| Nc1nc2c(ncn2[C@H]2C[C@H](O)[C@@H](COP(=O)(O)OP(=O)(O)OP(=O)(O)O)O2)c(=O)[nH]1 | kext | s⁻¹ | 0.005 |
| Nc1nc(N)c2ncn([C@H]3C[C@H](O)[C@@H](COP(=O)(O)OP(=O)(O)OP(=O)(O)O)O3)c2n1 | kext | s⁻¹ | 0.016 |
| Nc1nc(Cl)c2ncn([C@H]3C[C@H](O)[C@@H](COP(=O)(O)OP(=O)(O)OP(=O)(O)O)O3)c2n1 | kext | s⁻¹ | 0.033 |

Where do the numbers come from? From patent US8114847B2.
